target or system: UniProt:P00742
Sequence (P00742 whole entry, looked up): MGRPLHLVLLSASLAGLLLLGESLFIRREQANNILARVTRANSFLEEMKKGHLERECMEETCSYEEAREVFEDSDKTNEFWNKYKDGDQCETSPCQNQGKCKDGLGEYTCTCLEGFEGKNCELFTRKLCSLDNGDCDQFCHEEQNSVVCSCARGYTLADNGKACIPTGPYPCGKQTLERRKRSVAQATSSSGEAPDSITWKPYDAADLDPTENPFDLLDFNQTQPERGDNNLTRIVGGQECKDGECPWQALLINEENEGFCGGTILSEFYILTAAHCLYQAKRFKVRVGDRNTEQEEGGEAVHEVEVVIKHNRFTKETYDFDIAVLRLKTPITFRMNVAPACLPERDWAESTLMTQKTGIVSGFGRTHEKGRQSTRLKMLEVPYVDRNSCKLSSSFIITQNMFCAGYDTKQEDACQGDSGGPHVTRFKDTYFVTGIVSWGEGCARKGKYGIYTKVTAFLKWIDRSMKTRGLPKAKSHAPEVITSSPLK
Sequence (P00742 whole entry, looked up): as above
assay explanation: Determination of the factor Xa-inhibitory activity in plasma samples (RVV-activated factor X, chromogenic substrate)
condition description: factor Xa inhibition in citrate plasma (Octapharma), RVV-stimulated, ChromozymX substrate
property: pIC50
Note on units: pIC50 is unitless, being -log10 of a concentration expressed in mol/L.

> print(dat)
                                   compound  assay.result
1  Cc1cc(N2C[C@H](CNC(=O)c3ccc(Cl)s3)OC2=O)ccc1-n1cccc(CCCO)c1=O [Example 10]          7.40
2  Cc1cc(N2C[C@H](CNC(=O)c3ccc(Cl)s3)OC2=O)ccc1-n1cccc(CCO)c1=O [Example 6]          7.15
3  Cc1cc(N2C[C@H](CNC(=O)c3ccc(Cl)s3)OC2=O)ccc1-n1cccc(CO)c1=O [Example 2]          7.68

// moving on: another record for pIC50
INPUT: Lookup: pIC50 / UniProt:P00742 / COCc1cc(N2C[C@H](CNC(=O)c3ccc(Cl)s3)OC2=O)ccc1-n1cccc(CCO)c1=O [Example 8]
OUTPUT: 6.78
